# Tested on: K562/A02
# METHOD_DESCRIPTION: Antiproliferative activity against human K562/A02 cells assessed as reduction in cell growth incubated for 48 hrs by MTT assay
# Format: functional, cell-based
# RECORDED_CONDITIONS: K562/A02, 48 h

INPUT_SMILES: COc1cc([C@@H]2c3cc4c(cc3[C@@H](NC/C=C/c3ccc(CN5CCN(c6ccc([N+](=O)[O-])cc6)CC5)o3)[C@H]3COC(=O)[C@H]23)OCO4)cc(OC)c1OC
IC50 (µM): 6.89

---

# Test system: HeLa
# METHOD_DESCRIPTION: Cytotoxicity against human HeLa cells assessed as reduction in cell growth incubated for 48 hrs by SRB assay
# Type: functional, cell-based
In this section we review reported IC50 values for a set of compounds.
READOUT_NAME: IC50

INPUT_SMILES: COc1cc(CN2CCN(c3ccccc3F)CC2)c2cc3[n+](cc2c1OC)CCc1cc2c(cc1-3)OCO2.[Cl-]
READOUT_VALUE: < 6 µg/mL
//
INPUT_SMILES: COc1cc(CN2CCN(c3ccc(F)cc3)CC2)c2cc3[n+](cc2c1OC)CCc1cc2c(cc1-3)OCO2.[Cl-]
READOUT_VALUE: < 6 µg/mL
//
INPUT_SMILES: COc1cc(CN2CCN(c3ccc(Cl)cc3)CC2)c2cc3[n+](cc2c1OC)CCc1cc2c(cc1-3)OCO2.[Cl-]
READOUT_VALUE: < 6 µg/mL
//
INPUT_SMILES: COc1cc(CN2CCN(c3ccc(OC(F)(F)F)cc3)CC2)c2cc3[n+](cc2c1OC)CCc1cc2c(cc1-3)OCO2.[Cl-]
READOUT_VALUE: < 6 µg/mL
//
INPUT_SMILES: COc1cc(CN2CCN(c3ccc(C(F)(F)F)cc3)CC2)c2cc3[n+](cc2c1OC)CCc1cc2c(cc1-3)OCO2.[Cl-]
READOUT_VALUE: < 6 µg/mL
//
INPUT_SMILES: COc1cc(CN2CCN(c3ccccc3[N+](=O)[O-])CC2)c2cc3[n+](cc2c1OC)CCc1cc2c(cc1-3)OCO2.[Cl-]
READOUT_VALUE: < 6 µg/mL
//
INPUT_SMILES: COc1cc(CN2CCN(c3ccc(C)cc3)CC2)c2cc3[n+](cc2c1OC)CCc1cc2c(cc1-3)OCO2.[Cl-]
READOUT_VALUE: < 6 µg/mL
//
INPUT_SMILES: COc1cc(CN2CCN(c3ccc([N+](=O)[O-])cc3)CC2)c2cc3[n+](cc2c1OC)CCc1cc2c(cc1-3)OCO2.[Cl-]
READOUT_VALUE: < 6 µg/mL
//
INPUT_SMILES: COc1cc(CN2CCN(c3ccccc3Cl)CC2)c2cc3[n+](cc2c1OC)CCc1cc2c(cc1-3)OCO2.[Cl-]
READOUT_VALUE: < 6 µg/mL
//
INPUT_SMILES: COc1cc(CN2CCN(c3cccc(Cl)c3)CC2)c2cc3[n+](cc2c1OC)CCc1cc2c(cc1-3)OCO2.[Cl-]
READOUT_VALUE: < 6 µg/mL
